molecular target: T1, cynomolgus/rhesus macaque CD47 protein, His Tag (ACRObiosystems, Cat. No. CD7-C52H1) (cynomolgus monkey, UniProt A0A2K5X523 19-139); assay: Biacore SPR, antibody captured on CM5 chip, CD47-His protein, 25 C
T1 construct: Bought protein; also called Cynomolgus monkey CD47 protein; not shown: His tag
parameter.measured: Kd (nM)
Express your answer in nM, writing the number without its unit.

Consider the reported Kd for these binders:
# binder, Kd (nM)
measured = [
    ("hz3F10-2.1 (antibody, human IgG4 S228P, kappa, V domains shown, Humanized 3F10, full-length heavy and light chains, made in CHO cells) VH: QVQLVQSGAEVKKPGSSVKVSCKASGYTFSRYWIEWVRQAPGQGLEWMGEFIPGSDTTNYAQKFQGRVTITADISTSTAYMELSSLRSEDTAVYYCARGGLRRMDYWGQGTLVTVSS VL: DIQMTQSPSSLSASVGDRVTITCRASSSVSSTYLHWYQQKPGKAPKLLIYTTSTLASGVPSRFSGSGSGTDFTLTISSLQPEDFATYYCQQFSESTWTFGQGTKLEIKR", 1.17),
    ("hz3F10-5.2 (antibody, human IgG4 S228P, kappa, V domains shown, Humanized 3F10, full-length heavy and light chains, made in CHO cells) VH: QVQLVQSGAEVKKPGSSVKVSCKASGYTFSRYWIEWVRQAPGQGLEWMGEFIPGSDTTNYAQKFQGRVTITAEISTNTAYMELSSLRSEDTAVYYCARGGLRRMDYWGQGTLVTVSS VL: DIQMTQSPSSLSASVGDRVTITCRASSSVSSTYLHWYQQKPGKAPKLWIYTTSTLASGVPSRFSGSGSGTSYTLTISSLQPEDFATYYCQQFSDSTWTFGQGTKLEIKR", 1.4),
]

Could you now look at the following binder, please?
Incoming: Recorded Kd of Xi14A9 (antibody, human IgG4 S228P, kappa, V domains shown, Chimeric: mouse VH on human IgG4 (S228P, EU) constant region, mouse VL on human kappa constant region; made in CHO cells; also called chimeric version of 14A9) VH: EVQLQQSGAEVARPGASVKLSCTVSGFNIEDDYIEWVKQRPEQGLEWIGRIDPANDKTKYAPKFQDKATITGDTSSNTAYLQLSSLTSEDTAVYYCTRPGLRRYYSMDYWGQGTSVTVSS VL: NIVLTQSPKSMSMSVGERVTLSCKASENVVSYVSWYQQKPEQSPKLLIYGASNRYTGVPDRFIGSGSSTDFTLIISSFQPEDLADYHCGQSYSYPLTFGAGTKLELKR , please.
Outgoing: 1.58
